Test system: K-562
Test: SRB colorimetric assay of cell growth and viability, K-562
Assay type: cell-based, human
Conditions: K-562; 48 hours exposure; read-out: LC50 K-562
Protocol: The finality of this assay is to interrupt the growth of a “in vitro” tumor cell culture by means a continued exhibition of the cells to the sample to be testing. […] Cells are seeded in 96 well microtiter plates, at 5×10^3 cells per well in aliquots of 195 μL medium, and they are allowed to attach to the plate surface by growing in drug free medium for 18 hours. […] Optical densities are read on a automated spectrophotometric plate reader at a single wavelength of 490 nm. […]
Where a SMILES comes first, the peptide text is derived from it. Bridges are numbered along the chain shown (N, C = ends). [ ]: non-standard residue; d: D form. The star is where a group is joined. Bip = N[C@@H](Cc1ccc(-c2ccccc2)cc1)C(=O)O; d(aIle) = CC[C@H](C)[C@@H](N)C(=O)O; d(aThr) = C[C@@H](O)[C@@H](N)C(=O)O; Hexanoyl(5-Me) = CC(C)CCCC(=O)*; Orn = NCCC[C@H](N)C(=O)O; Dhb = C/C=C(\N)C(=O)O
ENDPOINT: CC50 (µM)
Express it in µM; write the number only.

Identify measured CC50 corresponding to C/C=C1\NC(=O)[C@H](Cc2ccc(-c3ccccc3)cc2)NC(=O)[C@@H](C(C)C)NC(=O)[C@@H]([C@@H](C)CC)NC(=O)[C@H](NC(=O)[C@H](NC(=O)[C@H](CCCN)NC(=O)[C@H]2CCCN2C(=O)[C@H](NC(=O)[C@@H](NC(=O)[C@@H](NC(=O)[C@H](NC(=O)CCCC(C)C)C(C)C)[C@@H](C)O)C(C)C)C(C)C)[C@@H](C)CC)[C@@H](C)OC(=O)[C@H](C(C)C)NC1=O [Compound 86, [Bip^3]-KF] ({Hexanoyl(5-Me)}-[dV]TV[dV][dP][Orn][d(aIle)][d(aThr)][d(aIle)][dV][Bip][Dhb]V; ester 8-C)
4.87

====

Measured TGI K-562, listed per entry.
test system: K-562; assay: SRB colorimetric assay of cell growth and viability, K-562; assay type: cell-based, human; conditions: K-562; 48 hours exposure
Where a SMILES comes first, the peptide text is derived from it. Bridges are numbered along the chain shown (N, C = ends). [ ]: non-standard residue; d: D form. The star is where a group is joined. 2Nal = N[C@@H](Cc1ccc2ccccc2c1)C(=O)O; d(aIle) = CC[C@H](C)[C@@H](N)C(=O)O; d(aThr) = C[C@@H](O)[C@@H](N)C(=O)O; Hexanoyl(5-Me) = CC(C)CCCC(=O)*; Orn = NCCC[C@H](N)C(=O)O; Dhb = C/C=C(\N)C(=O)O
Give the value in Molar but do not write Molar after it.

# COMPOUND, TGI K-562 [Molar]
data = [
    ("C/C=C1\\NC(=O)[C@H](Cc2ccc(F)c(F)c2)NC(=O)[C@@H](C(C)C)NC(=O)[C@@H]([C@@H](C)CC)NC(=O)[C@H](NC(=O)[C@H](NC(=O)[C@H](CCCN)NC(=O)[C@H]2CCCN2C(=O)[C@H](NC(=O)[C@@H](NC(=O)[C@@H](NC(=O)[C@H](NC(=O)CCCC(C)C)C(C)C)[C@@H](C)O)C(C)C)C(C)C)[C@@H](C)CC)[C@@H](C)OC(=O)[C@H](C(C)C)NC1=O [Compound 84, [Phe(3,4-F2)^3]-KF]", "9.28E−07"),
    ("C/C=C1\\NC(=O)[C@H](Cc2ccccc2)NC(=O)[C@@H](C(C)C)NC(=O)[C@@H]([C@@H](C)CC)NC(=O)[C@H](NC(=O)[C@H](NC(=O)[C@H](CCCN)NC(=O)[C@H]2CCCN2C(=O)[C@H](NC(=O)[C@@H](NC(=O)[C@H](CCC(=O)O)NC(=O)[C@H](NC(=O)CCCC(C)C)C(C)C)C(C)C)C(C)C)[C@@H](C)CC)[C@@H](C)OC(=O)[C@H](C(C)C)NC1=O [Compound 115, [Glu^12]-KF] ({Hexanoyl(5-Me)}-[dV]EV[dV][dP][Orn][d(aIle)][d(aThr)][d(aIle)][dV]F[Dhb]V; ester 8-C)", "6.64E−06"),
    ("C/C=C1\\NC(=O)[C@H](Cc2ccccc2)NC(=O)[C@@H](C(C)C)NC(=O)[C@@H]([C@@H](C)CC)NC(=O)[C@H](NC(=O)[C@H](NC(=O)[C@H](CCCN)NC(=O)[C@H]2CCCN2C(=O)[C@H](NC(=O)[C@@H](NC(=O)[C@H](Cc2ccccc2)NC(=O)[C@H](NC(=O)CCCC(C)C)C(C)C)C(C)C)C(C)C)[C@@H](C)CC)[C@@H](C)OC(=O)[C@H](C(C)C)NC1=O [Compound 114, [Phe^12]-KF] ({Hexanoyl(5-Me)}-[dV]FV[dV][dP][Orn][d(aIle)][d(aThr)][d(aIle)][dV]F[Dhb]V; ester 8-C)", "3.71E−07"),
]

Please find the next compound below.
Please report the measured TGI K-562 for C/C=C1\NC(=O)[C@H](Cc2ccc3ccccc3c2)NC(=O)[C@@H](C(C)C)NC(=O)[C@@H]([C@@H](C)CC)NC(=O)[C@H](NC(=O)[C@H](NC(=O)[C@H](CCCN)NC(=O)[C@H]2CCCN2C(=O)[C@H](NC(=O)[C@@H](NC(=O)[C@@H](NC(=O)[C@H](NC(=O)CCCC(C)C)C(C)C)[C@@H](C)O)C(C)C)C(C)C)[C@@H](C)CC)[C@@H](C)OC(=O)[C@H](C(C)C)NC1=O [Compound 85, [Nal^3]-KF] ({Hexanoyl(5-Me)}-[dV]TV[dV][dP][Orn][d(aIle)][d(aThr)][d(aIle)][dV][2Nal][Dhb]V; ester 8-C)
7.13E−07

====

Test system: HeLa-APL
Assay: SRB colorimetric assay of cell growth and viability, HeLa-APL
Format: cell-based, human
Details: 48 hours exposure, SRB; read-out: LC50 HELA-APL
Description: The finality of this assay is to interrupt the growth of a “in vitro” tumor cell culture by means a continued exhibition of the cells to the sample to be testing. […] Cells are seeded in 96 well microtiter plates, at 5×10^3 cells per well in aliquots of 195 μL medium, and they are allowed to attach to the plate surface by growing in drug free medium for 18 hours. […] Optical densities are read on a automated spectrophotometric plate reader at a single wavelength of 490 nm. […]
ENDPOINT: CC50 (µM)
Please state the figure in µM; there is no need to write the unit.

# MOLECULE, OBSERVED RESULT
measured = [
    ("C/C=C1\\NC(=O)[C@H](Cc2ccccc2)NC(=O)[C@@H](C(C)C)NC(=O)[C@@H]([C@@H](C)CC)NC(=O)[C@H](NC(=O)[C@H](NC(=O)[C@H](CCCNC(=O)C(F)(F)F)NC(=O)[C@H]2CCCN2C(=O)[C@H](NC(=O)[C@@H](NC(=O)[C@@H](NC(=O)[C@H](NC(=O)CC[C@@H](C)CC)C(C)C)[C@@H](C)O)C(C)C)C(C)C)[C@@H](C)CC)[C@@H](C)OC(=O)[C@H](C(C)C)NC1=O [Compound 96]", 3.82),
]

Now take the following molecule into account.
Note down CC50 recorded for C/C=C1\NC(=O)[C@H](Cc2ccccc2)NC(=O)[C@@H](C(C)C)NC(=O)[C@@H]([C@@H](C)CC)NC(=O)[C@H](NC(=O)[C@H](NC(=O)[C@H](CCCNC(=O)C(F)(F)F)NC(=O)[C@H]2CCCN2C(=O)[C@H](NC(=O)[C@@H](NC(=O)[C@@H](NC(=O)[C@H](NC(=O)CC[C@@H](C)CC)C(C)C)[C@@H](C)OC(=O)C(F)(F)F)C(C)C)C(C)C)[C@@H](C)CC)[C@@H](C)OC(=O)[C@H](C(C)C)NC1=O [Compound 95]
3.74

====

test system: HeLa; assay: SRB colorimetric assay of cell growth and viability, HeLa; type: cell-based, human; details: HELA; 48 hours exposure
Where a SMILES comes first, the peptide text is derived from it. Bridges are numbered along the chain shown (N, C = ends). [ ]: non-standard residue; d: D form. The star is where a group is joined. d(aIle) = CC[C@H](C)[C@@H](N)C(=O)O; d(aThr) = C[C@@H](O)[C@@H](N)C(=O)O; Hexanoyl(5-Me) = CC(C)CCCC(=O)*; Orn = NCCC[C@H](N)C(=O)O; Dhb = C/C=C(\N)C(=O)O
ENDPOINT: TGI HELA (Molar)
Give the value in Molar but do not write Molar after it.

Take a look at these entries with their results.
# COMPOUND, VALUE UNIT, TGI HELA
records = [
    ("C/C=C1\\NC(=O)[C@H](Cc2ccc(F)c(F)c2)NC(=O)[C@@H](C(C)C)NC(=O)[C@@H]([C@@H](C)CC)NC(=O)[C@H](NC(=O)[C@H](NC(=O)[C@H](CCCN)NC(=O)[C@H]2CCCN2C(=O)[C@H](NC(=O)[C@@H](NC(=O)[C@@H](NC(=O)[C@H](NC(=O)CCCC(C)C)C(C)C)[C@@H](C)O)C(C)C)C(C)C)[C@@H](C)CC)[C@@H](C)OC(=O)[C@H](C(C)C)NC1=O [Compound 84, [Phe(3,4-F2)^3]-KF]", "Molar", "2.17E−07"),
    ("C/C=C1\\NC(=O)[C@H](Cc2ccccc2)NC(=O)[C@@H](C(C)C)NC(=O)[C@@H]([C@@H](C)CC)NC(=O)[C@H](NC(=O)[C@H](NC(=O)[C@H](CCCN)NC(=O)[C@H]2CCCN2C(=O)[C@H](NC(=O)[C@@H](NC(=O)[C@@H](NC(=O)[C@@H](C(C)C)N(CCCCCCC)CCCCCCC)[C@@H](C)O)C(C)C)C(C)C)[C@@H](C)CC)[C@@H](C)OC(=O)[C@H](C(C)C)NC1=O [Compound 98]", "Molar", "2.43E−06"),
]

For the compound C/C=C1\NC(=O)[C@H](Cc2ccccc2)NC(=O)[C@@H](C(C)C)NC(=O)[C@@H]([C@@H](C)CC)NC(=O)[C@H](NC(=O)[C@H](NC(=O)[C@H](CCCN)NC(=O)[C@H]2CCCN2C(=O)[C@H](NC(=O)[C@@H](NC(=O)[C@H](CCC(N)=O)NC(=O)[C@H](NC(=O)CCCC(C)C)C(C)C)C(C)C)C(C)C)[C@@H](C)CC)[C@@H](C)OC(=O)[C@H](C(C)C)NC1=O [Compound 119, [Gln^12]-KF] ({Hexanoyl(5-Me)}-[dV]QV[dV][dP][Orn][d(aIle)][d(aThr)][d(aIle)][dV]F[Dhb]V; ester 8-C) , report TGI HELA.
6.64E−07

Fill in reported TGI HELA for this entry: C/C=C1\NC(=O)[C@H](Cc2ccccc2)NC(=O)[C@@H](C(C)C)NC(=O)[C@@H]([C@@H](C)CC)NC(=O)[C@H](NC(=O)[C@H](NC(=O)[C@H](CCCNC(=O)CCCC[C@@H]2SC[C@@H]3NC(=O)N[C@@H]32)NC(=O)[C@H]2CCCN2C(=O)[C@H](NC(=O)[C@@H](NC(=O)[C@@H](NC(=O)[C@H](NC(=O)CCCC(C)C)C(C)C)[C@@H](C)O)C(C)C)C(C)C)[C@@H](C)CC)[C@@H](C)OC(=O)[C@H](C(C)C)NC1=O [Compound 99, [Orn(Biot)^8]-Kahalalide F]
1.19E−06

Tell us which TGI HELA value is on record for C/C=C1\NC(=O)[C@H](Cc2ccc(Cl)cc2)NC(=O)[C@@H](C(C)C)NC(=O)[C@@H]([C@@H](C)CC)NC(=O)[C@H](NC(=O)[C@H](NC(=O)[C@H](CCCN)NC(=O)[C@H]2CCCN2C(=O)[C@H](NC(=O)[C@@H](NC(=O)[C@@H](NC(=O)[C@H](NC(=O)CCCC(C)C)C(C)C)[C@@H](C)O)C(C)C)C(C)C)[C@@H](C)CC)[C@@H](C)OC(=O)[C@H](C(C)C)NC1=O [Compound 83, [Phe(4-Cl)^3]-KF]
2.00E−07
